- Tested on: Huh-5-2 cells
- assay.name: Cytostatic effect on Huh-5-2 cells (MTS method, parallel cultures)
- Format: cell-based
- condition.label: 72 hours, read-out: CC50 (concentration required to inhibit the proliferation of exponentially growing Huh-5-2 cells by 50%)
readout: CC50

Lab note: CC(=O)OCC1OC(n2c(SCc3cc4cc(Br)ccc4oc3=O)nc3cc(Cl)c(Cl)cc32)C(OC(C)=O)C(OC(C)=O)C1OC(C)=O (stereo not shown) gave CC50 of > 64.8 µM

###

- assay.name: Cytostatic effect on Huh-5-2 cells (MTS method, parallel cultures)
- Assay type: cell-based
- condition.label: human, read-out: CC50 (concentration required to inhibit the proliferation of exponentially growing Huh-5-2 cells by 50%)
readout: CC50 at 72 h (µM)
Dear colleague, please return just the value in µM, with no unit written.

# count of solved cases: 10
# molecule, readout, units.of.measure, numeric.result
data = [
    ("Cc1cc2nc(SCc3cc4ccccc4oc3=O)[nH]c2cc1C", "CC50 at 72 h", "µM", 66.6),
    ("O=c1oc2ccccc2cc1CSc1nc2ccccc2o1 [Compound 19a]", "CC50 at 72 h", "µM", 45.2),
    ("COc1cccc2cc(CSc3nc4cnc(Cl)nc4[nH]3)c(=O)oc12 [Compound 16e]", "CC50 at 72 h", "µM", 94),
    ("COc1cccc2cc(CSc3nc4cc(F)ccc4[nH]3)c(=O)oc12", "CC50 at 72 h", "µM", 41.9),
    ("CC(=O)OCC1OC(n2c(SCc3cc4ccccc4oc3=O)nc3cc(C)ccc32)C(OC(C)=O)C(OC(C)=O)C1OC(C)=O (centres unmarked)", "CC50 at 72 h", "µM", 44.8),
    ("CC(=O)OCC1OC(n2c(SCc3cc4ccccc4oc3=O)nc3cc(F)ccc32)C(OC(C)=O)C(OC(C)=O)C1OC(C)=O (centres unmarked)", "CC50 at 72 h", "µM", 43.1),
    ("O=c1oc2ccccc2cc1CSc1nc2ccccc2[nH]1", "CC50 at 72 h", "µM", 90.1),
    ("COc1cccc2cc(CSc3nc4cc(Cl)c(Cl)cc4n3C3OC(COC(C)=O)C(OC(C)=O)C(OC(C)=O)C3OC(C)=O)c(=O)oc12 (centres unmarked)", "CC50 at 72 h", "µM", 33.1),
    ("O=c1oc2ccc(Br)cc2cc1CSc1nc2ccccc2o1 [Compound 19c]", "CC50 at 72 h", "µM", 131),
    ("COc1cccc2cc(CSc3nc4cccnc4[nH]3)c(=O)oc12 [Compound 16b]", "CC50 at 72 h", "µM", 30.3),
]

Lab note: CC(=O)OCC1OC(n2c(SCc3cc4cc(Br)ccc4oc3=O)nc3cc(F)ccc32)C(OC(C)=O)C(OC(C)=O)C1OC(C)=O (centres unmarked) gave CC50 at 72 h of 21.9

Lab note: CC(=O)OCC1OC(n2c(SCc3cc4ccccc4oc3=O)nc3ccccc32)C(OC(C)=O)C(OC(C)=O)C1OC(C)=O (centres unmarked) gave CC50 at 72 h of 76.4

Lab note: Cc1cccc2cc(CSc3nc4ccccc4[nH]3)c(=O)oc12 gave CC50 at 72 h of 27.3

Lab note: O=c1oc2ccccc2cc1CSc1nc2cc(Cl)c(Cl)cc2[nH]1 gave CC50 at 72 h of 74.4

Lab note: COc1cccc2cc(CSc3nc4cc(Cl)c(Cl)cc4[nH]3)c(=O)oc12 gave CC50 at 72 h of 11.1

Lab note: O=c1oc2ccc(Br)cc2cc1CSc1nc2ccccc2[nH]1 gave CC50 at 72 h of 41.7

Lab note: O=c1oc2ccc(Br)cc2cc1CSc1nc2cc(F)ccc2[nH]1 gave CC50 at 72 h of 26.7

Cited source: patent US20090197910A1
